Each recorded value in this set is attributed to patent US10815200B2.

Listed here: items and their measured Internalized fraction.
System: LNCaP cells
Assay: Specific cell uptake and internalization in LNCaP cells
Format: cell-based, human
Settings: (Internalized activity/total activity)*100
Protocol: During cell culture, cells were grown at 37° C. in an incubator with humidified air, equilibrated with 5% CO2. […] To determine the specific cell uptake and internalization, 10^5 cells were seeded in poly-L-lysine coated 24-well cell culture plates 24 h before incubation. […] The surface-bound and the internalized fractions were measured in a gamma counter. The cell uptake was calculated as percent of the initially added radioactivity bound to 10^5 cells [% ID/10^5 cells].

>  <compound>
O=C(O)CCC(NC(=O)NC(CCCCNC(=O)C(Cc1ccc2ccccc2c1)NC(=O)c1ccc(CNC(=O)C(CCC(=O)O)NC(=O)C(CCC(=O)O)NC(=O)c2ccc([18F])nc2)cc1)C(=O)O)C(=O)O (stereo not shown) [PSMA-1007]

>  <unit.spec>
%

>  <Internalized fraction>
71

$$$$
>  <compound>
O=C(O)CC[C@@H](NC(=O)N[C@H](CCCCNC(=O)[C@@H](Cc1ccc2ccccc2c1)NC(=O)[C@@H](CCC(=O)O)NC(=O)[C@@H](CCC(=O)O)NC(=O)c1ccnc([18F])c1)C(=O)O)C(=O)O [PSMA-1011]

>  <unit.spec>
%

>  <Internalized fraction>
15

$$$$
>  <compound>
O=C(O)CCC(NC(=O)NC(CCCCNC(=O)C(Cc1ccc2ccccc2c1)NC(=O)c1ccc(CNC(=O)C(CCC(=O)O)NC(=O)C(CCC(=O)O)NC(=O)c2ccc([18F])nc2)cc1)C(=O)O)C(=O)O (stereo not shown) [PSMA-1024]

>  <unit.spec>
%

>  <Internalized fraction>
28

$$$$
>  <compound>
O=C(O)CCC(NC(=O)NC(CCCCNC(=O)C(Cc1ccc2ccccc2c1)NC(=O)c1ccc(CNC(=O)C(CNC(=O)c2ccc([18F])nc2)S(=O)(=O)O)cc1)C(=O)O)C(=O)O (stereo not shown) [PSMA-1026]

>  <unit.spec>
%

>  <Internalized fraction>
50

$$$$
>  <compound>
O=C(O)CCC(NC(=O)NC(CCCCNC(=O)C(Cc1ccc2ccccc2c1)NC(=O)CCC(NC(=O)C(CCC(=O)O)NC(=O)C(CCC(=O)O)NC(=O)c1ccc([18F])nc1)C(=O)O)C(=O)O)C(=O)O (stereo not shown) [PSMA-1020]

>  <unit.spec>
%

>  <Internalized fraction>
18

$$$$
>  <compound>
O=C(O)CCC(NC(=O)NC(CCCCNC(=O)C(Cc1ccc2ccccc2c1)NC(=O)c1ccc(CNC(=O)C(CCC(=O)O)NC(=O)C(CCC(=O)O)NC(=O)c2ccc([18F])nc2)cc1)C(=O)O)C(=O)O (stereo not shown) [PSMA-1023]

>  <unit.spec>
%

>  <Internalized fraction>
33

$$$$
>  <compound>
O=C(O)CC[C@@H](NC(=O)N[C@H](CCCCNC(=O)[C@@H](Cc1ccc2ccccc2c1)NC(=O)c1ccc(CNC(=O)[C@@H](CCC(=O)O)NC(=O)c2ccnc([18F])c2)cc1)C(=O)O)C(=O)O [PSMA-1015, (Glu)-(Urea)-(Lys)-(2-Nal)-(Bn)-(Glu)-FN]

>  <unit.spec>
%

>  <Internalized fraction>
30

$$$$
